- System: NCI-H522 lung
- Measurement notes: NCI tumour cell line growth inhibition, 48 h
Measurement label: TGI (µM)
Only the number, expressed in µM, is required.

Ask: Report value: TGI, system: NCI-H522 lung, compound: CC(=O)Nc1ccc2c3c(cc(O)c2c1)N(C(=O)CCCCC(=O)Nc1ccc2c4c(cc(O)c2c1)N(C(=O)OC(C)(C)C)CC4CCl)CC3CCl (centres undefined)
Result: 4.1

Ask: Report value: TGI, system: NCI-H522 lung, compound: CC(=O)NC1=C(C)C(=O)c2c(nc3n2CCC3O)C1=N (centres undefined)
Result: 19.6

Ask: Report value: TGI, system: NCI-H522 lung, compound: C[C@@H]1COCCN1c1cc(C2(S(C)(=N)=O)CC2)nc(-c2ccnc3[nH]ccc23)n1 (some centres undefined)
Result: 43.1

Ask: Report value: TGI, system: NCI-H522 lung, compound: COC(=O)c1c(C)cccc1CC1Cc2c(C)cccc2C1=O (centres undefined)
Result: 57.8

Ask: Report value: TGI, system: NCI-H522 lung, compound: C=C1CC[C@@H]2[C@](C)(COC(C)=O)[C@H](OC(C)=O)CC[C@@]2(C)[C@@H]1CC(Nc1ccc(S(=O)(=O)Nc2nccc(C)n2)cc1)C1=CCOC1=O (some centres undefined)
Result: 3.1

----------
- System: BT-549 breast
- Measurement notes: NCI tumour cell line growth inhibition, 48 h; in the data active = GI50 below about 0.43 µM; inactive = the rest
Outcome field: choose from y = active, n = inactive

Sample answers from the record:
COc1ccc2c(c1)OC(N(C(C)=O)C(C)=O)=C(C#N)C2c1ccc(F)cc1 (stereo unspecified)
n
CC[C@H](CC#N)OC(=O)N[C@@H](C)c1cccc(NC(=O)Nc2ccc(-c3cnco3)c(OC)c2)c1
y
COc1cc[nH]c1/C=C1\C(=O)Nc2ccc(F)c(I)c21
n
Fc1ccc2[nH]c3c(NCCCN4CCOCC4)ncnc3c2c1
n
CCOP(=O)(OCC)C(NC(c1ccccc1)c1ccccc1)c1cccc2ccccc12 (stereo unspecified)
n
CC(=O)O[C@@H]1CC2C(C)(C)CCCC2(C)C2=C1C(=O)C(C(C)C)=CC2=O (stereo partly specified)
n

Ask: Kindly provide the recorded test outcome for the following compound: CO/N=C(\C)c1ccc(Nc2cc(-c3ccccc3)nc3c(O)cccc23)cc1
Result: n

Ask: Kindly provide the recorded test outcome for the following compound: CCCCN(Cc1ccc(F)cc1)c1ccc(CO)c(Cl)c1
Result: n

Ask: Kindly provide the recorded test outcome for the following compound: CN(CCOc1ccc(C#N)cc1)CCOc1ccc(C#N)cc1
Result: n

Ask: Kindly provide the recorded test outcome for the following compound: Clc1nc(Cl)c2c(ncn2C/C=C\Cn2cnc3c(Cl)nc(Cl)nc32)n1
Result: n

Ask: Kindly provide the recorded test outcome for the following compound: CC(=O)Nc1ccc2c(c1)oc(=O)c1cc(NC(C)=O)ccc12
Result: n

Ask: Kindly provide the recorded test outcome for the following compound: CC(C)(C)c1ccc(S(=O)(=O)N[C@H]2CC[C@H]3[C@@H]4CCc5cc(OS(=O)(=O)O)ccc5[C@H]4CC[C@]23C)cc1
Result: n

Ask: Kindly provide the recorded test outcome for the following compound: CN(C)c1ccc2cc(-c3ccccc3F)c(N)nc2c1
Result: n

Ask: Kindly provide the recorded test outcome for the following compound: COc1ccc(-c2cncn2-c2ccc(OC)cc2)cc1
Result: n

Ask: Kindly provide the recorded test outcome for the following compound: CN(C)C(=S)N=Nc1c(O)[nH]c2ccccc12
Result: n

Ask: Kindly provide the recorded test outcome for the following compound: Cc1nc2sc(C(=O)Nc3ccccc3)c(N)c2cc1C(=O)/C=C/c1ccccc1
Result: n

Where these numbers come from: PubChem BioAssay (NCI)
